biological target: hemagglutinin (HA) of influenza A/Solomon Islands/3/06 H1N1 (Influenza A virus A/Solomon …); test: cell-based or functional assay
Field: % Neutralization. Provide a value for each of the binders that follow.
Write it as a number; the unit % goes unstated.

For the binder TCN-544 (5082_A19) (antibody, V domains shown) VH: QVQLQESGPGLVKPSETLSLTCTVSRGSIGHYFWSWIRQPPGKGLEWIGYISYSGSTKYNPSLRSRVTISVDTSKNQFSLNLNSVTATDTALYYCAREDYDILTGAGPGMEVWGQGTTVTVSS VL: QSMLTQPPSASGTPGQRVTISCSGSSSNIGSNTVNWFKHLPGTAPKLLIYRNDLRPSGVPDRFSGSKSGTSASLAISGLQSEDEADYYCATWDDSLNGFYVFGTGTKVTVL , what % Neutralization is on record?
95

Report % Neutralization for TCN-533 (5256_A17) (antibody, V domains shown) VH: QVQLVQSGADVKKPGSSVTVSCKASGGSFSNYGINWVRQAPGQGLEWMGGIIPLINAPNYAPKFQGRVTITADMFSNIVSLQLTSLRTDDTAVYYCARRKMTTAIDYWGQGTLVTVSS VL: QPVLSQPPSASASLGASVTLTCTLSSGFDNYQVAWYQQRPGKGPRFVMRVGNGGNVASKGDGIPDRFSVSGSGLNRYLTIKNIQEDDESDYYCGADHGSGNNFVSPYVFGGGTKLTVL please.
56

Fill in the blank: the reported % Neutralization of TCN-540 (5060_F05) (antibody, V domains shown) VH: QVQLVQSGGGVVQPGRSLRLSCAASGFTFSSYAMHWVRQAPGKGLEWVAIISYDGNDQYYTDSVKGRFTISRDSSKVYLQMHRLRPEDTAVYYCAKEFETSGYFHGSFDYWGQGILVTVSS VL: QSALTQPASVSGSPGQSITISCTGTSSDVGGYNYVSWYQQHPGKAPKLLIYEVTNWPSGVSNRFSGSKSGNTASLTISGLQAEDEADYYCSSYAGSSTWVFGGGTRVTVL is ____.
100
